System: tet operator sequence
Test: β-galactosidase activity of a tetracycline-regulated promoter in transformed E. coli with revTetR, in the presence and absence of anhydrotetracycline (atc)
Format: cell-based, Escherichia coli
Details: RevTetR isolate cultured in the presence of anhydrotetracycline (ATC)
# key: entry, value: β-Galactosidase Activity, Cultured With ATC
measurement-type: β-Galactosidase Activity, Cultured With ATC

molecule="TetRrevAtc4-9b: revTetR(BD) A56P V57L E58V L60L (protein, Modified tetracycline repressor, revTetR(BD) A56P V57L E58V L60L) MSRLDKSKVINSALELLNEVGIEGLTTRKLAQKLGVEQPTLYWHVKNKRALLDALPLVILARHHDYSLPAAGESWQSFLRNNAMSFRRALLRYRDGAKVHLGTRPDEKQYDTVETQLRFMTENGFSLRDGLYAISAVSHFTLGAVLEQQEHTAALTDRPAAPDENLPPLLREALQIMDSDDGEQAFLHGLESLIRGFEVQLTALLQIV" reported_result=1.0594
molecule="TetRrev96/99-13: revTetR(BD) G96T V99D (protein, Modified tetracycline repressor, revTetR(BD) G96T V99D) MSRLDKSKVINSALELLNEVGIEGLTTRKLAQKLGVEQPTLYWHVKNKRALLDALAVEILARHHDYSLPAAGESWQSFLRNNAMSFRRALLRYRDTAKDHLGTRPDEKQYDTVETQLRFMTENGFSLRDGLYAISAVSHFTLGAVLEQQEHTAALTDRPAAPDENLPPLLREALQIMDSDDGEQAFLHGLESLIRGFEVQLTALLQIV" reported_result=16.95
